Experiment: Protein binding in rat plasma assessed as unbound fraction
Type: ADME, cell-free
readout: fraction unbound

{"columns": ["chemical.string", "value.reported"],
 "data": [
  ["Cc1cc(-c2ccc3c(c2)-c2nnc(Oc4cccc(Cl)c4F)n2CCO3)ccn1", 0.0111],
  ["Cc1cc(-c2ccc3c(c2)-c2nnc(Nc4cccc(OC(F)(F)F)c4)n2CCO3)ccn1", 0.0949],
  ["Cc1cc(-c2ccc3c(c2)-c2nnc(Nc4cccc(Cl)c4)n2CCO3)ccn1", 0.0337],
  ["FC(F)(F)Oc1cccc(Nc2nnc3n2CCOc2ccc(-c4ccncc4)cc2-3)c1", 0.0041]
]}

----------
Target: Probable G-protein coupled receptor 142 (Homo sapiens, UniProt Q7Z601)
Sequence (Q7Z601 whole entry): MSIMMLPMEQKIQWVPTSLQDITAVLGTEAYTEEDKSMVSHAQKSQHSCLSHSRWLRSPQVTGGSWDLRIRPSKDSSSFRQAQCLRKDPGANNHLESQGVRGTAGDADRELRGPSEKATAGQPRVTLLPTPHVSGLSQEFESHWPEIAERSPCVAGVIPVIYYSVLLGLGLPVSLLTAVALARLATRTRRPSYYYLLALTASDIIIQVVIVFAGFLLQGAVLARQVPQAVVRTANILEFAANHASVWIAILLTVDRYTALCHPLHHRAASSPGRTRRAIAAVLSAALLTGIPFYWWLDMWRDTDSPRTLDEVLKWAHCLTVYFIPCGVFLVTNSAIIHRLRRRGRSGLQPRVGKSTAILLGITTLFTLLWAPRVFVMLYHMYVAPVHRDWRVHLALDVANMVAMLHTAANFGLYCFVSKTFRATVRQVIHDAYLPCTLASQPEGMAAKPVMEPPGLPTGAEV
Test: Agonist activity at human GPR142 expressed in CHO cells measured for 3 mins by Fluo-4M dye based FLIPR assay
Format: cell-based
Conditions: read-out: IC50 (the source's name)
pEC50: −log10 of the molar value.
# Lookup of reported pEC50 keyed by entry

{"columns": ["chemical.string", "test.target", "comparison.operator", "pEC50"],
 "data": [
  ["O=C(Nc1ccc(Cl)c(Cl)c1)N1CCCc2ccc(-c3ccncc3)cc21", "Probable G-protein coupled receptor 142 (Homo sapiens, UniProt Q7Z601)", "<", 4.70],
  ["FC(F)(F)c1cccc(Nc2nnc3n2CCOc2ccc(-c4ccncc4)cc2-3)c1", "Probable G-protein coupled receptor 142 (Homo sapiens, UniProt Q7Z601)", "=", 7.32],
  ["Cc1cc(-c2ccc3c(c2)-c2nnc(Nc4cccc(C(F)(F)F)c4)n2CCO3)ccn1", "Probable G-protein coupled receptor 142 (Homo sapiens, UniProt Q7Z601)", "=", 7.20],
  ["Cc1cc(-c2ccc3c(c2)-c2nnc(Oc4ccccc4Cl)n2CCO3)ccn1", "Probable G-protein coupled receptor 142 (Homo sapiens, UniProt Q7Z601)", "=", 6.99],
  ["Cc1cc(-c2ccc3c(c2)-c2nnc(Oc4ccccc4OC(F)(F)F)n2CCO3)ccn1", "Probable G-protein coupled receptor 142 (Homo sapiens, UniProt Q7Z601)", "=", 7.05],
  ["O=C(Nc1cccc(C(F)(F)F)c1)N1CCOc2ccc(-c3ccncc3)cc2C1", "Probable G-protein coupled receptor 142 (Homo sapiens, UniProt Q7Z601)", "=", 6.80],
  ["N#Cc1cccc(NC(=O)N2CCOc3ccc(-n4ccnc4)cc3C2)c1", "Probable G-protein coupled receptor 142 (Homo sapiens, UniProt Q7Z601)", "=", 6.96],
  ["O=C(Nc1ccc(Cl)c(Cl)c1)N1CCc2ccc(-c3ccncc3)cc2C1", "Probable G-protein coupled receptor 142 (Homo sapiens, UniProt Q7Z601)", "=", 5.73],
  ["Cc1cc(-c2ccc3c(c2)-c2nnc(Oc4cccc(Cl)c4)n2CCO3)ccn1", "Probable G-protein coupled receptor 142 (Homo sapiens, UniProt Q7Z601)", "=", 7.24],
  ["COc1cccc(NC(=O)N2CCOc3ccc(-c4ccnc(OC)c4)cc3C2)c1", "Probable G-protein coupled receptor 142 (Homo sapiens, UniProt Q7Z601)", "=", 5.55],
  ["COc1cccc(NC(=O)N2CCOc3ccc(-c4ccncc4OC)cc3C2)c1", "Probable G-protein coupled receptor 142 (Homo sapiens, UniProt Q7Z601)", "=", 6.73],
  ["CCCCN1CCN(C(=O)Nc2ccc(Cl)c(Cl)c2)Cc2cc(-c3ccncc3)ccc21", "Probable G-protein coupled receptor 142 (Homo sapiens, UniProt Q7Z601)", "<", 4.70],
  ["O=C(Nc1cccc(-c2ccccc2)c1)N1CCOc2ccc(-c3ccncc3)cc2C1", "Probable G-protein coupled receptor 142 (Homo sapiens, UniProt Q7Z601)", "=", 6.46]
]}

----------
# Lookup of reported EC50 keyed by entry
Target: Probable G-protein coupled receptor 142 (Mus musculus)
Sequence (Q7TQN9 whole entry): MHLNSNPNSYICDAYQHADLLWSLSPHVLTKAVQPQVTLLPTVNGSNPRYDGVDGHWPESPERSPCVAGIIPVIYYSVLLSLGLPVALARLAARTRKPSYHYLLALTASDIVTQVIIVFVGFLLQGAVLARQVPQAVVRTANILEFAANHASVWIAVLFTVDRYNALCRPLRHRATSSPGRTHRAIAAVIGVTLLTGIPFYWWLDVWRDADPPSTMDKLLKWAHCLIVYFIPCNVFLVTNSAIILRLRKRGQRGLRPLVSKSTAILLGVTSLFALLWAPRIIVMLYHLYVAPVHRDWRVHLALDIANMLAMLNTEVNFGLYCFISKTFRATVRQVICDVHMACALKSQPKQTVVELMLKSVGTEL
Test: Agonist activity at mouse GPR142 expressed in CHO cells measured for 3 mins by Fluo-4M dye based FLIPR assay
Conditions: read-out: IC50 (the source's name)
readout: EC50 (nM)

{"columns": ["chemical.string", "comparison.operator", "value.reported"],
 "data": [
  ["O=C(Cc1cccc(C(F)(F)F)c1)N1CCOc2ccc(-c3ccncc3)cc2C1", "=", 611],
  ["COc1cccc(NC(=O)N2CCOc3ccc(-c4ccnc5ccccc45)cc3C2)c1", "=", 216],
  ["COc1ccc(NC(=O)N2CCOc3ccc(-c4ccncc4)cc3C2)cc1", ">", 20000],
  ["O=C(Nc1ccccc1F)N1CCOc2ccc(-c3ccncc3)cc2C1", "=", 604],
  ["O=C(Nc1ccc(Cl)c(Cl)c1)N1CCCc2ccc(-c3ccncc3)cc2C1", "=", 590],
  ["O=C(Nc1cccc(Cl)c1)N1CCOc2ccc(-c3ccncc3)cc2C1", "=", 164],
  ["O=C(Nc1ccc(Cl)c(Cl)c1)N1CCCc2ccc(-c3ccncc3)cc21", ">", 20000],
  ["O=C(Nc1ccc(Cl)c(Cl)c1)N1Cc2ccc(-c3ccncc3)cc2C1", ">", 20000]
]}

----------
# Lookup of reported Vd keyed by entry
Experiment: Volume of distribution at steady state in rat at 2 mg/kg, po or 1 mg/kg, iv
Type: ADME, organism-based
Settings: in vivo, read-out: Vdss

{"columns": ["chemical.string", "Vd / L/kg"],
 "data": [
  ["Cc1cc(-c2ccc3c(c2)-c2nnc(Nc4cccc(OC(F)(F)F)c4)n2CCO3)ccn1", 1.9],
  ["Cc1cc(-c2ccc3c(c2)-c2nnc(Nc4cccc(Cl)c4)n2CCO3)ccn1", 1.9],
  ["FC(F)(F)Oc1cccc(Nc2nnc3n2CCOc2ccc(-c4ccncc4)cc2-3)c1", 2.2]
]}

----------
Target: Probable G-protein coupled receptor 142 (Homo sapiens)
Assay: Agonist activity at human GPR142 expressed in CHO cells measured for 3 mins by Fluo-4M dye based FLIPR assay
Conditions: read-out: IC50 (the source's name)
Grouping by measured EC50 is done with the following cut points: low class = under 0.2 µM, middle class = from 0.2 µM up to 0.8 µM, high class = 0.8 µM and over

{"columns": ["chemical.string", "test.target", "label"],
 "data": [
  ["COc1ccc(NC(=O)N2CCOc3ccc(-c4ccncc4)cc3C2)cc1", "Probable G-protein coupled receptor 142 (Homo sapiens)", "high class"],
  ["COc1ccccc1NC(=O)N1CCOc2ccc(-c3ccncc3)cc2C1", "Probable G-protein coupled receptor 142 (Homo sapiens)", "middle class"],
  ["FC(F)(F)Oc1cccc(Nc2nnc3n2CCOc2ccc(-c4ccncc4)cc2-3)c1", "Probable G-protein coupled receptor 142 (Homo sapiens)", "low class"],
  ["O=C(Nc1cccc(F)c1)N1CCOc2ccc(-c3ccncc3)cc2C1", "Probable G-protein coupled receptor 142 (Homo sapiens)", "middle class"],
  ["O=C(Nc1cccc(Cl)c1F)N1CCOc2ccc(-c3ccncc3)cc2C1", "Probable G-protein coupled receptor 142 (Homo sapiens)", "low class"],
  ["O=C(Nc1ccc(F)c(Cl)c1)N1CCOc2ccc(-c3ccncc3)cc2C1", "Probable G-protein coupled receptor 142 (Homo sapiens)", "low class"],
  ["O=C(Nc1ccc(Cl)c(Cl)c1)N1Cc2ccc(-c3ccncc3)cc2C1", "Probable G-protein coupled receptor 142 (Homo sapiens)", "high class"],
  ["O=C(Nc1cccc(Cl)c1Cl)N1CCOc2ccc(-c3ccncc3)cc2C1", "Probable G-protein coupled receptor 142 (Homo sapiens)", "middle class"],
  ["COc1cccc(NC(=O)N2CCOc3ccc(-c4ccncc4)cc3C2)c1", "Probable G-protein coupled receptor 142 (Homo sapiens)", "middle class"],
  ["O=C(Nc1ccc(Cl)c(Cl)c1)N1CCOc2ccc(-c3ccncc3)cc2C1", "Probable G-protein coupled receptor 142 (Homo sapiens)", "low class"],
  ["O=C(Nc1ccccc1F)N1CCOc2ccc(-c3ccncc3)cc2C1", "Probable G-protein coupled receptor 142 (Homo sapiens)", "high class"],
  ["O=C(Cc1cccc(C(F)(F)F)c1)N1CCOc2ccc(-c3ccncc3)cc2C1", "Probable G-protein coupled receptor 142 (Homo sapiens)", "high class"],
  ["O=C(Nc1ccc(Cl)c(Cl)c1)N1CCc2ccc(-c3ccncc3)cc21", "Probable G-protein coupled receptor 142 (Homo sapiens)", "high class"]
]}

Hello, the source for this data is ChEMBL document CHEMBL4715723, in case you need it.
